# measurement notes: CCTE_Harrill_HTTr_CellCount_MCF7: CCTE's Cell Proliferation Assessment for the High-Throughput Transcriptomics (HTTr) Platform, Harrill Lab (AID 2284012);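 note: count of Hoechst-stained nuclei per well by high-content imaging in MCF-7 cells; cells exposed to compound for six hours; intended direction is loss of nuclei count meaning fewer cells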
Records with an inconclusive call do not appear. The source made the active and inactive calls. Rule for the calls: active = hit-call score of the fitted dose curve at least 0.9, where 1 is the maximum; inconclusive = response in the unintended direction; inactive = score below 0.9.
Would you mind answering with one of these outcomes? active, inactive

Solved cases below.
- C[C@]12C=CC3=C4CCC(=O)C=C4CC[C@H]3[C@@H]1CC[C@@H]2O: inactive
- CS(=O)(=O)NC(=O)c1cc(Oc2ccc(C(F)(F)F)cc2Cl)ccc1[N+](=O)[O-]: inactive
- CCN(CC)CCO: inactive
- N#CC(Br)(Br)C(N)=O: inactive
- CN(C)c1ccccc1: inactive

Request: Status in this test for `[Cl-].[Cl-].[Hg+2]` ?
Result: inactive

Request: Status in this test for CCOc1cccc(C2(N3CCN(c4ccccc4)CC3)CCC(C)CC2)c1 (centres undefined) ?
Result: inactive

Request: Status in this test for `CC(C)(C)OOC(C)(C)CCC(C)(C)OOC(C)(C)C` ?
Result: inactive

---

# measurement notes: STM_H9_OrnithineISnorm_perc: Stemina devTOX quickPredict H9 human embryonic stem cell (hESC)-based Assay for Ornithine (ORN) Metabolite Biomarker, Normalized (AID 2283712);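 note: ornithine released into spent medium during last day measured by mass spectrometry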
The source made the active and inactive calls. The calls were made as follows: active = hit-call score of the fitted dose curve at least 0.9, where 1 is the maximum; inactive = score below 0.9.
measured endpoint: AC50

* Nc1ccc(Oc2ccc(N)cc2)cc1 | 59.5 µM (active)
* CCCCCCCCn1sccc1=O | 43 µM (active)
* C[N+](C)(C)CC1CO1 (stereo not given) | 21 µM (active)
* COC(=O)Nc1nc2ccccc2[nH]1 | inactive
* COc1cc(C=O)cc2c1[C@H](COC(N)=O)[C@]1(OC(C)=O)ON2C[C@H]2[C@@H]1N2C(C)=O | 0.00101 µM (active)
* CNC(=O)Oc1cccc2c1OC(C)(C)C2 | inactive
* Oc1ccc2ccc3cccc4ccc1c2c34 | inactive
* O=C1CCCO1 | inactive
* CO[C@@H]1[C@H](OC(=O)NC(=O)CCl)CC[C@]2(CO2)[C@H]1[C@@]1(C)O[C@@H]1CC=C(C)C | 0.0844 µM (active)
* Brc1ccc(Oc2ccccc2)cc1 | inactive

Request: Return reported AC50; argument: `CCN(CC)N=O`
Result: inactive

Request: Return reported AC50; argument: `Cc1cccc(N)c1N`
Result: 76.4 µM (active)

---

# measurement notes: CCTE_Shafer_MEA_acute_per_burst_spike_number_mean: CCTE's Neural Acute Assay for Average Number of Spikes Per Burst, Shafer Lab (AID 2284015);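 note: hits are decreases in mean spikes per burst versus baseline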
The source made the active and inactive calls. The calls were made as follows: active = hit-call score of the fitted dose curve at least 0.9, where 1 is the maximum; inactive = score below 0.9.
Would you mind answering with one of these outcomes? Y (active), N (inactive)

* O=P(OCCCl)(OCCCl)OCCCl | N
* Cc1ccc(N)c(N)c1 | N
* CC(C)(OOC(C)(C)c1ccccc1)c1ccccc1 | N

Request: Status in this test for `CCCCCCCCn1sccc1=O` ?
Result: N

Request: Status in this test for `CC(C)COC(=O)c1ccccc1C(=O)OCC(C)C` ?
Result: Y

Request: Status in this test for `ClCCOCCCl` ?
Result: N

Request: Status in this test for `COC(=O)Nc1nc2ccccc2[nH]1` ?
Result: N

Request: Status in this test for `N#CC(Br)Br` ?
Result: N

Request: Status in this test for `Cc1cc(N=Nc2ccccc2C)ccc1N` ?
Result: Y

Request: Status in this test for C[N+](C)(C)CC1CO1 (stereo unspecified) ?
Result: N
